- ASSAY: Cytotoxicity against mouse NIH/3T3 cells assessed as inhibition of cell growth incubated for 72 hrs by MTT assay
- Format: toxicity, cell-based, NIH3T3
QUANTITY_MEASURED: IC50 at 72 h (µM)

* CCOC(=O)[C@H]1c2c(C)cccc2[C@H]2CC[C@@]3(CNCc4ccc(F)cc4)C[C@]21C[C@H]3O | 15.2
* CCOC(=O)[C@H]1c2c(C)cccc2[C@H]2CC[C@@]3(CNCc4ccc(OC)cc4)C[C@]21C[C@H]3O | 14.7
* CCOC(=O)[C@H]1c2c(C)cccc2[C@H]2CC[C@@]3(CN[C@@H](C)c4ccc5ccccc5c4)C[C@]21C[C@H]3O | 4.62
* CCOC(=O)[C@H]1c2c(C)cccc2[C@H]2CC[C@@]3(CNCc4cc(Br)ccc4O)C[C@]21C[C@H]3O | 13
* CCOC(=O)[C@H]1c2c(C)cccc2[C@H]2CC[C@@]3(CO)C[C@]21C[C@@H]3N[C@H](C)c1cccc2ccccc12 | 14.5
* CCOC(=O)[C@H]1c2c(C)cccc2[C@H]2CC[C@@]3(CO)C[C@]21C[C@@H]3NCCc1c[nH]c2ccccc12 | 13
* CCOC(=O)[C@H]1c2c(C)cccc2[C@H]2CC[C@@]3(CO)C[C@]21C[C@@H]3NCc1cc(Br)ccc1O | 19.7
* CCOC(=O)[C@H]1c2c(C)cccc2[C@H]2CC[C@@]3(CO)C[C@]21C[C@@H]3N[C@@H](C)c1cccc2ccccc12 | 6.02
* CCOC(=O)[C@H]1c2c(C)cccc2[C@H]2CC[C@]3(O)C[C@@]21C[C@]3(O)CN[C@@H](C)c1cccc2ccccc12 | 4.38

Data origin: ChEMBL document CHEMBL5335840
